- test system: T1, recombinant N-terminal extracellular domain of the human PTH1R receptor (human, UniProt Q03431 27-188, limits assumed)
- T1 construct: domain: N-terminal extracellular domain; Bought reagent; also called N-ECD PTH1R; PTH1R N-terminal ECD
- T1 sequence (looked up): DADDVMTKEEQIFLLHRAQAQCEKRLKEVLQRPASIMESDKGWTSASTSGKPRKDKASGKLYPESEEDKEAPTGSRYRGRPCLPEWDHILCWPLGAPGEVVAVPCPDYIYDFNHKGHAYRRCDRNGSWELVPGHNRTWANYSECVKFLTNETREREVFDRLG
- assay name: SPR, IgG captured, ECD injected
test readout: kon (M⁻¹ s⁻¹)
Write down the numeric answer in M⁻¹ s⁻¹ and omit the unit.

Given the binder XPA.85.288 (antibody, V domains shown, also called Ab288) VH: QMQLVQSGAEVKKPGSSVKVSCKASGGTFSSYAISWVRQAPGQGLEWMGGIIPIFGTANYAQKFQGRVTITADESTSTAYMELSSLRSEDTAVYYCARGYVVARLWGQGTLVTVSS VL: DVVMTQTPLSLSVTPGQPASISCKSSQSLLHIDGKTYLYWYLQKSGQSPQLLIYEVSNRFSGVPDTFSGSGSGTDFTLKISRVEAEDVGVYYCMQSLHFPITFGQGTRLEIK , what is its reported kon?
780000

Look up kon: XPA.85.337 (antibody, V domains shown, Light-chain-shuffled variant of XPA.85.017) VH: EVQLVETGGGVVRPGGSLRLSCAASGFTFSSSAMSWVRQTPGKELQWVSAITPGGEGTYYADVVKGRFTISRDNSKDTLYLQMDSLRAEDTAVYYCARDLYGSYGDAFDIWGQGTLVTVSS VL: SYVLTQPPSVSVAPGQTATITCSGDDFGDKYVSWYQQKPGQSPLLVIFQDNERPSGIPERFSGSNSGNTATLTISGTQAMDEADYYCQAWDSNWVFGGGTKVTVL
610000

Entry XPA.85.342 (antibody, V domains shown, Light-chain-shuffled variant of XPA.85.012) VH: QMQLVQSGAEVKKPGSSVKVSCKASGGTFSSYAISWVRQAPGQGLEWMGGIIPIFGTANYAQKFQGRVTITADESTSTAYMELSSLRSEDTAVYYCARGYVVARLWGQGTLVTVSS VL: ETTLTQSPTFMSASVGDRVTITCQASQDINNFLNWYQQKPGKAPKFLIYDASNLEKGVPSRFSGRGSGTEFTLTISSLQPEDIATYYCQQYRDFPLTFGQGTRLEIK has what kon?
2.3e+06
